- Measurement protocol: BSK_hDFCGF_Proliferation: Cell Proliferation Assessment in the BioMAP Diversity Plus: hDFCGF Assay (AID 2283059);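 further: curves fitted for both rise and fall of signal versus DMSO baseline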
- Protocol conditions: primary human foreskin fibroblasts
Calls of active or inactive are those of the source. How the source made its calls: active means hit-call score of the fitted dose curve at least 0.9, where 1 is the maximum; inactive means score below 0.9.
// one of active, inactive, no free text

Worked examples, 4 molecules total:
• N#CC(CCc1ccc(Cl)cc1)(Cn1cncn1)c1ccccc1 (stereo not given) = active
• CCOc1cc(Oc2ccc(C(F)(F)F)cc2Cl)ccc1[N+](=O)[O-] = active
• C=CCC1=C(C)C(OC(=O)C2C(C=C(C)C)C2(C)C)CC1=O (stereo not given) = active
• Cc1ccc(-c2c(Cl)nc(C#N)n2S(=O)(=O)N(C)C)cc1 = active

(Q) What outcome does the record of this test show for CN(C)C(=S)SSC(=S)N(C)C ?
(A) active

(Q) Please answer likewise for CCCN(CCC)c1c([N+](=O)[O-])cc(S(N)(=O)=O)cc1[N+](=O)[O-]
(A) active

(Q) Now the same for O=C(O)COc1nc(Cl)c(Cl)cc1Cl
(A) inactive

(Q) Please do the same for CCCCOC(=O)c1ccccc1C(=O)OCCCC as well.
(A) inactive

(Q) Similarly, COP(=S)(OC)Oc1nc(Cl)c(Cl)cc1Cl ?
(A) active
